# TARGET DESC: Sumo-ELL2(519-640) (human, UniProt O00472 519-640)
# Sequence (O00472 519-640): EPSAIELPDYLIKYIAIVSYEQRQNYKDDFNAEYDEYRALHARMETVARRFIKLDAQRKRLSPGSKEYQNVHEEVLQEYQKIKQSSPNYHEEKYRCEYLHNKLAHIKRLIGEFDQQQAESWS
# EXPERIMENTAL PROTOCOL: fluorescence polarisation
MEASURED PROPERTY: fold reduction of affinity against wild type

{"BINDER": "AFF4^ELLBow I319D/L320D (301-351) (peptide) PSQPLDASASGDVSCVDEDDKEMTHSWPPPLTAIHTPCKTEPSKFPFPTKE", "RESULT": "> 25 fold"}
{"BINDER": "AFF4^ELLBow L331D (301-351) (peptide) PSQPLDASASGDVSCVDEILKEMTHSWPPPDTAIHTPCKTEPSKFPFPTKE", "RESULT": "~20 fold"}
{"BINDER": "AFF4^ELLBow double 328-329 Pro-Gly mutant (301-351) (peptide) PSQPLDASASGDVSCVDEILKEMTHSWGGPLTAIHTPCKTEPSKFPFPTKE", "RESULT": "3 fold"}
{"BINDER": "AFF4^ELLBow I334D (301-351) (peptide) PSQPLDASASGDVSCVDEILKEMTHSWPPPLTADHTPCKTEPSKFPFPTKE", "RESULT": "8 fold"}

So what's the measured fold reduction of affinity against wild type for this one? AFF4^ELLBow F345D/F347D (301-351) (peptide) PSQPLDASASGDVSCVDEILKEMTHSWPPPLTAIHTPCKTEPSKDPDPTKE
< 2 fold

So what's the measured fold reduction of affinity against wild type for this one? AFF4^ELLBow M323D (301-351) (peptide) PSQPLDASASGDVSCVDEILKEDTHSWPPPLTAIHTPCKTEPSKFPFPTKE
> 25 fold

So what's the measured fold reduction of affinity against wild type for this one? AFF4^ELLBow P342D (301-351) (peptide) PSQPLDASASGDVSCVDEILKEMTHSWPPPLTAIHTPCKTEDSKFPFPTKE
3 fold

So what's the measured fold reduction of affinity against wild type for this one? AFF4^ELLBow W327D (301-351) (peptide) PSQPLDASASGDVSCVDEILKEMTHSDPPPLTAIHTPCKTEPSKFPFPTKE
4 fold

So what's the measured fold reduction of affinity against wild type for this one? AFF4^ELLBow E322H (301-351) (peptide) PSQPLDASASGDVSCVDEILKHMTHSWPPPLTAIHTPCKTEPSKFPFPTKE
< 2 fold
